FYI, the data here is from paper PMC3601661.

Item-by-item account of IC50
Molecular target: progesterone receptor ligand binding domain (PR-LBD-GST) (Homo sapiens, UniProt P06401)
Sequence (P06401 675-933): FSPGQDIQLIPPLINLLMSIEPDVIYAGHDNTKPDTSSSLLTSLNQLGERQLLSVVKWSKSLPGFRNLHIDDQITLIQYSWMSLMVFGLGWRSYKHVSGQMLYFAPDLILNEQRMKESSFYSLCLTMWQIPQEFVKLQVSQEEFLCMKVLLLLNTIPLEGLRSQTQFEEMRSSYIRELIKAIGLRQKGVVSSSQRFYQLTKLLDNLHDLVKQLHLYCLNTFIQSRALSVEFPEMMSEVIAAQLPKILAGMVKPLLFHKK
Test: Progesterone receptor polarization competitive binding assay
REPORTED ENDPOINT: IC50

- O=c1c(-c2ccc(O)cc2)coc2cc(O)cc(O)c12: > 250 µM
- O=c1c(-c2ccc(O)cc2)coc2cc(O)ccc12: > 250 µM
- COc1ccc(-c2coc3cc(O)ccc3c2=O)cc1: > 250 µM
